- measured on: T1, human BMPR1B coated on MSD plates (construct not stated) (human, UniProt O00238 14-126, limits assumed)
- T1 construct: also called BMPR1B receptor
- T1 sequence: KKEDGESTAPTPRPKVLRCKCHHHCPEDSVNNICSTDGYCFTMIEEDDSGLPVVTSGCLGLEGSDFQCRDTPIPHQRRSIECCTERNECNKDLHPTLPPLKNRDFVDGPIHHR
- assay remarks: MSD ELISA, BMP2 blocked
- Parameters: concentration or dose not given beside the values
Quick list: % inhibition per entry.
Give your result in % as a bare value.

Solved cases below.
binder	unit label	reading
SC91.172 (antibody, V domains shown) VH: QVQLQQPGADLVKPGTSVKLSCKASGYTFTSYWMQWVKQRPGQGLEWIGEIDPSDTYTMYNQKFKGKATLTVDTSSSTAYMQLSSLTSEDSAVYYCARFGYYVDYWGQGTTLTVSS VL: DVVMTQTPLSLPVSLGDQASISCRSSQSLVHSTGNTYLHWYLQKAGQSPKLLIYKVSNRFSGVPDRFSGSGSGTDFTLKISRVEAEDLGVYFCSQSTHVPFTFGSGTKLEIK	%	51
SC91.160 (antibody, V domains shown) VH: QIQLVQSGPELKKPGETVKISCKASGYTFTTYGMNWVKQAPGKGLKWMGWINTYSGVPSSADDFKGRFAFSLETSASTAYLLINNLKNEDTATYFCARSELRNWYFDVWGTGTTVTVSS VL: SFVMTQTPKFLLVSAGDRVTITCKASQNMGHDVAWYQQKPGQSPKLLIYSASNRYTGVPDRFTGSGYGTDFTFTISTVQAEDLAVYFCQQDYSSPFTFGSGTKLEMK	%	47

Proceed to the following item.
*Q* Entry SC91.1 (murine anti-BMPR1B antibody) (antibody, V domains shown, Murine hybridoma antibody with a kappa light chain) VH: QVQLQQPGAELVKPGASVKLSCKASGYTFTSYWMQWVKQRPGQGLEWIGEIDPSDNYTLYNQKFKGKATLTVDTSSSTAYMQLSSLTSEDSAVYYCARFGYYVDYWGLGTTLTVSS VL: DVVMTQTPLSLPVSLGDQASIFCRSSQSLVHSTGNTYLHWYLQKPGQSPKLLIYKVSNRFSGVPDRFSGSGSGTDFTLKISRVEAEDLGVYFCSQSTHVPFTFGSGTKLEIK : reported % inhibition = ?
*A* 38
